The reported measurements were obtained from ChEMBL document CHEMBL2434887.

subjectOfTest: Protein farnesyltransferase (Homo sapiens, UniProt P49354+P49356)
testSummary: Inhibition of recombinant human farnesyltransferase using Dansyl-GCVLS as substrate at 100 uM measured for 15 mins by fluorimetric analysis relative to control
Format: protein-complex assay
Tick true if inhibition is 80% or greater. Tick false if inhibition is less than 80%.

CCOC(=O)/C(C#N)=C/[C-](C(=O)c1ccc(OC)cc1)[n+]1ccc(N(C)C)cc1 ... false
CCOC(=O)/C(C#N)=C/[C-](C(=O)c1ccc(OC)c(OC)c1)[n+]1ccc(OC)cc1 ... true
COc1ccc(C(=O)[C-](C=C(C#N)C#N)[n+]2cc(C)cc(C)c2)cc1 ... false
COc1cc(C(=O)[C-](C=C(C#N)C#N)[n+]2ccc(N(C)C)cc2)cc(OC)c1OC ... true
CCOC(=O)/C(C#N)=C/[C-](C(=O)c1cc(OC)c(OC)c(OC)c1)[n+]1ccc(N(C)C)cc1 ... false
CCOC(=O)/C(C#N)=C/[C-](C(=O)c1ccc(Br)cc1)[n+]1ccc(N(C)C)cc1 ... true
CN(C)c1cc[n+]([C-](C=C(C#N)C#N)C(=O)c2ccc([N+](=O)[O-])cc2)cc1 ... true
CCOC(=O)/C(C#N)=C/[C-](C(=O)c1ccccc1)[n+]1ccc(C)cc1 ... false
CCOC(=O)/C(C#N)=C/[C-](C(=O)c1ccc2c(c1)NC(=O)CO2)[n+]1ccc(N(C)C)cc1 ... false
CN(C)c1cc[n+]([C-](C=C(C#N)C#N)C(=O)c2ccc(C#N)cc2)cc1 ... false
CCOC(=O)/C(C#N)=C/[C-](C(=O)c1ccc(C)cc1)[n+]1ccc(N(C)C)cc1 ... false
COc1ccc(C(=O)[C-](C=C(C#N)C#N)[n+]2ccc(N(C)C)cc2)cc1 ... true
COc1ccc(C(=O)[C-](C=C(C#N)C#N)[n+]2ccc(OC)cc2)cc1 ... true
CN(C)c1cc[n+]([C-](C=C(C#N)C#N)C(=O)c2ccc(Br)cc2)cc1 ... true
CN(C)c1cc[n+]([C-](C=C(C#N)C#N)C(=O)c2ccc3c(c2)NC(=O)CO3)cc1 ... true
CCOC(=O)/C(C#N)=C/[C-](C(=O)c1ccc(OC)cc1)[n+]1ccc(OC)cc1 ... false
CCOC(=O)/C(C#N)=C/[C-](C(=O)c1ccc(F)cc1)[n+]1ccc(N(C)C)cc1 ... false

* * *

subjectOfTest: Protein farnesyltransferase (Homo sapiens, UniProt P49354+P49356)
testSummary: Inhibition of recombinant human farnesyltransferase using Dansyl-GCVLS as substrate at 100 uM measured for 15 mins by fluorimetric analysis relative to control
Assay type: protein-complex assay
The following molecules are shown together with reported inhibition values.
reportedProperty: inhibition (%)

CN(C)c1cc[n+]([C-](C=C(C#N)C#N)C(=O)c2ccc(Cl)cc2)cc1 ... 95
Cc1ccc(C(=O)[C-](C=C(C#N)C#N)[n+]2ccc(N(C)C)cc2)cc1 ... 89
CCOC(=O)/C(C#N)=C/[C-](C(=O)c1ccc(OC)cc1)[n+]1cc(C)cc(C)c1 ... 49
COc1cc(C(=O)[C-](C=C(C#N)C#N)[n+]2cc(C)cc(C)c2)cc(OC)c1OC ... 82
Cc1cc[n+]([C-](C=C(C#N)C#N)C(=O)c2ccccc2)cc1 ... 29
CCOC(=O)/C(C#N)=C/[C-](C(=O)c1ccccc1)[n+]1ccc(N(C)C)cc1 ... 68
COc1cc[n+]([C-](C=C(C#N)C#N)C(=O)c2ccc(OC)c(OC)c2)cc1 ... 77
CCOC(=O)/C(C#N)=C/[C-](C(=O)c1ccc(Cl)cc1)[n+]1ccc(N(C)C)cc1 ... 100
CCOC(=O)/C(C#N)=C/[C-](C(=O)c1ccc(C#N)cc1)[n+]1ccc(N(C)C)cc1 ... 69
CCOC(=O)/C(C#N)=C/[C-](C(=O)c1cc(OC)c(OC)c(OC)c1)[n+]1cc(C)cc(C)c1 ... 90
